system: Escherichia coli; assay: Ratio of Kcat/Km for Escherichia coli DH5alpha beta-lactamase TEM-12 to Kcat/Km for Escherichia coli DH5alpha beta-lactamase TEM-158
Examples of molecules with documented Ratio follow.
In your answer, state the number alone without any accompanying words.

> print(dat)
                               entry.smiles  measured.parameter  quantitative.readout
1  CCN1CCN(C(=O)N[C@@H](C(=O)N[C@@H]2C(=O)N3[C@@H]2SC(C)(C)[C@@H]3C(=O)O)c2ccccc2)C(=O)C1=O               Ratio                     8
2  C[C@H]1[C@H](NC(=O)/C(=N\OC(C)(C)C(=O)O)c2csc(N)n2)C(=O)N1S(=O)(=O)O               Ratio                     4
3  CC1(C)S[C@@H]2[C@H](NC(=O)[C@H](N)c3ccc(O)cc3)C(=O)N2[C@H]1C(=O)O               Ratio                     4
4  CO/N=C(\C(=O)N[C@@H]1C(=O)N2C(C(=O)O)=C(COC(C)=O)CS[C@H]12)c1csc(N)n1               Ratio                     4
5  CC1(C)S[C@@H]2[C@H](NC(=O)Cc3ccccc3)C(=O)N2[C@H]1C(=O)O               Ratio                     8
6  C[C@@H](O)[C@H]1C(=O)N2C(C(=O)O)=C(SCCNC=N)C[C@H]12               Ratio                     4
7  CC1(C)S[C@@H]2[C@H](NC(=O)[C@H](C(=O)O)c3ccsc3)C(=O)N2[C@H]1C(=O)O               Ratio                     8
8  CO/N=C(\C(=O)N[C@@H]1C(=O)N2C(C(=O)[O-])=C(C[N+]3(C)CCCC3)CS[C@H]12)c1csc(N)n1               Ratio                     4

So what does the record say about Ratio for `CO/N=C(\C(=O)N[C@@H]1C(=O)N2C(C(=O)O)=C(COC(N)=O)CS[C@H]12)c1ccco1` ? 4

Query `CC(=O)OCC1=C(C(=O)O)N2C(=O)[C@@H](NC(=O)Cc3cccs3)[C@H]2SC1` next 4

Request: `CC(C)(O/N=C(\C(=O)N[C@@H]1C(=O)N2C(C(=O)[O-])=C(C[n+]3ccccc3)CS[C@H]12)c1csc(N)n1)C(=O)O` 4

Also need `CO[C@@]1(NC(=O)Cc2cccs2)C(=O)N2C(C(=O)O)=C(COC(N)=O)CS[C@@H]21` , thanks. 4

Where these numbers come from: ChEMBL document CHEMBL1137638
